Measured Inh. (%) (Inhibition) accompanies every entry in the list below.
Target: HCV NS3 helicase NS3h_1b(con1) (Hepatitis C virus genotype 1b, UniProt Q9WMX2)
Construct: truncated C-terminally His-tagged NS3 proteins lacking the N-terminal protease, called NS3h; His-tag (C); made in house
Sequence (Q9WMX2 1192-1657): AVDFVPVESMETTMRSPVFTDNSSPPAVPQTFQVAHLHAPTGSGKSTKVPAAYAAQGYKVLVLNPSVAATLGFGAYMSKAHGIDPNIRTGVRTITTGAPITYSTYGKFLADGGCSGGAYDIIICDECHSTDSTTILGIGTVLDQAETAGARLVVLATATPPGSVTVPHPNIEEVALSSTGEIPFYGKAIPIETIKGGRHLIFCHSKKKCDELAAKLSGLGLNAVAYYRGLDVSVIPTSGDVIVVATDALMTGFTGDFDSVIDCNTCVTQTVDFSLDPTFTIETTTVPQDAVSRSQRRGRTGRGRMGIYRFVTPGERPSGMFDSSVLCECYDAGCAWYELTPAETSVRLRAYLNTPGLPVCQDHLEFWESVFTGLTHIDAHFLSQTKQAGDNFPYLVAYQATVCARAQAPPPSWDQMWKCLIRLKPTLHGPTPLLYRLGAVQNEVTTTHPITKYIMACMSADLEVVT
Assay: MBHA screen of NCI mechanistic set library at 20 μM (percent inhibition, compound interference)
Assay type: biochemical
Conditions: compounds at 20 μM, MBHA with a DNA substrate; calculated from Equation 1

COMPOUND	Inh. (%) (Inhibition)
NC(N)=NCCCS(=O)(=O)Nc1ccc(Nc2c3ccccc3nc3cc([N+](=O)[O-])ccc23)cc1 [Compound 177365]	9.2
C=CC(=O)N1C/C(=C\c2ccc(Cl)cc2)C(=O)/C(=C/c2ccc(Cl)cc2)C1 [Compound 687849]	−5.2
O=C1OC(c2ccco2)=N/C1=C\c1ccc(Cl)c(Cl)c1 [Compound 202000]	−5.7
COc1cc2c(c(OC)c1OC)-c1ccc(OC)c(=O)cc1[C@@H](NC(=O)c1ccccc1)CC2 [Compound 33410]	−28.8
CCCN(CCC)C(=S)Sc1nc(C)nc(N2CCN(c3nc(C)nc(SC(=S)N(CCC)CCC)c3[N+](=O)[O-])CC2)c1[N+](=O)[O-] [Compound 675593]	−3.8
Nc1nc2c(ncn2[C@@H]2O[C@H](CO)[C@@H](O)[C@H]2O)c(=O)[nH]1 [Compound 19994]	10.4
CC(=O)[O][Sn]([CH2]c1ccccc1)([CH2]c1ccccc1)[CH2]c1ccccc1 [Compound 164909]	−20.2
Cc1ccc(N=Nc2c(O)ccc3ccccc23)cc1 [Compound 106296]	−5.2
O=C1c2ccccc2C(=O)c2sc(Nc3ccc(Cl)c(Cl)c3)nc21 [Compound 631521]	−22.6
C=C1C(=O)OC2C1CC1OC2C(C)CCC/C(C)=C\CCC1(C)O (stereo not drawn) [Compound 282752]	−5.5
O=C1N[C@@H]2C(=C[C@H](O)[C@@H](O)[C@H]2O)c2cc3c(c(O)c21)OCO3 [Compound 266535]	−5.9
COC(=O)NC1C(C)OC(OC2C/C=C(\C)C3C=C[C@H]4C(OC5CC(OC6CCC(OC7CC(O)C(OC8CCC(O)C(C)O8)C(C)O7)C(C)O6)C(OC(C)=O)C(C)O5)C(C)CC(C)[C@@H]4[C@@]3(C)C([O-])=C3C(=O)OC4(CC(C=O)=CC(O)[C@@H]4/C=C\2C)C3=O)CC1(C)[N+](=O)[O-].[Na+] (stereo partly drawn) [Compound 333856]	−5.2
CC(=O)NC1C(OCc2ccccc2)OC(CO)C(O)C1OC(C)C(=O)NC(C(=O)NC(CCC(=O)NCCCCNc1c2ccccc2nc2cccc([N+](=O)[O-])c12)C(N)=O)C(C)C (stereo not drawn) [Compound 697468]	−23.8
CC(C)C(=O)OCN(C)c1nc(N(C)COC(=O)C(C)C)nc(N(C)COC(=O)C(C)C)n1 [Compound 626551]	−24.9
Cc1cc(O)c(/C=N/C(N)=S)c(=O)o1 [Compound 657449]	−25.4
